Provenance of the data: PubChem BioAssay (NCI)

- Tested on: EKVX NSCLC
- Experiment Description: NCI tumour cell line growth inhibition, 48 h
For each entry below, report its TGI value.

Param readout = TGI; param system = EKVX NSCLC; param query = CCc1[nH]c(=O)nc(N)c1-c1ccc(N2CCCCC2)c([N+](=O)[O-])c1 ; response: value
> 100 µM

And for Cc1nc2ccccc2c(=O)n1NC(=O)c1ccccn1 ?
> 100 µM

And for Cn1c(-c2cccs2)cc(-c2cccs2)c1-c1cccs1 ?
> 100 µM

And for CC12CCCC(C(=O)O)(C1)[C@H](C(C)(C)C(=O)O)CC2 (stereo not given in full) ?
> 100 µM

And for C[C@]12CC[C@H]3[C@@H](CCC4=CC(=O)CC[C@@H]43)[C@@H]1CC[C@]2(O)C(N)=O ?
> 100 µM

And for NCc1ccc(-c2ccc(CN)s2)s1 ?
> 100 µM

And for C=CCN1C(=O)/C(=C/c2ccc(Cl)cc2)N=C1SC/C=C/C ?
> 100 µM

And for CC(=O)[CH-]C(=O)c1ccccc1.CC(=O)[CH-]C(=O)c1ccccc1.O=C([O-])c1ccc([O-])cc1.O=C([O-])c1ccc([O-])cc1.[Ti+4] ?
79.6 µM

And for CC1=C2C(=O)O[C@@H](c3ccoc3)[C@]2(C)CCC1 ?
> 100 µM

And for COc1ccc2c(c1)CCC1C3(CCCC21C)OCCO3 (stereo not given) ?
82.3 µM

* * *

- Test system: MALME-3M melanoma
- Experiment Description: NCI tumour cell line growth inhibition, 48 h
Metric Name: TGI

Return reported TGI; argument: CCOC1=NC(=O)CC(c2ccccc2)S1 (centres undefined)
> 100 µM

And for COc1cc2c(cc1C)NC(=O)/C2=C/c1cccnc1 ?
> 52.9 µM

And for NC(=O)NC1NC(=O)NC1=O (centres undefined) ?
> 100 µM

And for Cc1ccc(S(=O)(=O)n2c(-c3ccccc3)c(-c3ccccc3)c3ccccc32)cc1 ?
> 100 µM

* * *

- Tested on: K-562 leukemia
- Experiment Description: NCI tumour cell line growth inhibition, 48 h
Metric Name: log10 of TGI (log10 of the value in µM)
All values: base-10 log of TGI in µM.

Return reported log10 of TGI; argument: Cc1ccc(/C(=C/C=C(C#N)C#N)Sc2ccc(Cl)cc2)cc1
1.26

And for CCC1CN2CCc3cc(OC)c(OC)cc3C2CC1CC1c2cc(OC)c(OC)cc2CCN1C(=O)C(N)Cc1ccccc1 (stereo not given) ?
0.29

And for CCOc1cccc(C=Nc2ccccc2SSc2ccccc2N=Cc2cccc(OCC)c2O)c1O ?
1.44

And for O=C1C2=Cc3ccccc3CCN2c2ccccc21 ?
1.31

And for CN(C)CC/C(=N\Nc1c(Cl)cccc1Cl)c1ccccc1 ?
1.72

* * *

- Tested on: A498 renal
- Experiment Description: NCI tumour cell line growth inhibition, 48 h
For each entry below, report its TGI value.

Return reported TGI; argument: NCc1ccc(-c2ccc(CN)s2)s1
23.1 µM

And for CC1(n2nc(-c3ccccc3)n(-c3ccccc3)c2=O)CSC1 ?
> 100 µM

And for COc1ccc(CC2Cc3ccccc3CCN2)cc1OC (stereo not given) ?
> 50 µM

And for CCOC(=O)NC(=O)c1cn(CCOCCOC(=O)NCCCCCCNC(=O)OCCOCCn2cc(C(=O)NC(=O)OCC)c(=O)[nH]c2=O)c(=O)[nH]c1=O ?
> 100 µM

And for CC(C)=CCc1c(O)cc(O)c2c1OC(c1ccc(O)cc1)C(O)C2=O (stereo not given) ?
> 100 µM

And for CC/C=C\C[C@@H]1C/C=C2/C(=O)C=C[C@H]2C/C=C\CCCC(=O)O1 ?
3.3 µM

And for C[C@]12CCC(O)CC1=CC[C@@H]1[C@@H]2CC[C@]2(C)C(O)[C@H](n3ccnc3)C[C@@H]12 (stereo not given in full) ?
> 100 µM

And for CC(=O)OCC(OC(C)=O)C1C[C@H]2O[C@@H]3[C@H](C[C@H]2O1)O[C@@]1(C[C@@H]3C)C[C@H](C)[C@@H]2O[C@]3(C[C@@H]2O1)C[C@H]1O[C@H]2[C@H](C)[C@H]4OC(=O)C[C@H]5CC[C@@H]6OC7[C@H]8O[C@]9(CC[C@H]%10CC(=O)[C@H](CC[C@H]%11C[C@@H](C)C(=O)C(C[C@@H]4O[C@H]2C[C@H]1O3)O%11)O%10)CC8O[C@@H]7[C@@H](O9)[C@H]6O5 (stereo not given in full) ?
> 1 µM

And for Cc1ccc(-c2c(C#N)c(-c3ccccc3)n(NS(=O)(=O)c3ccc(C)cc3)c(=O)c2C#N)cc1 ?
> 100 µM

And for CC(=O)OC1CC(O)C23COC(O)C1(C)C2CC(O)C1(C)C3C(=O)C(O)C2(C)C(c3ccoc3)CC3OC321 (stereo not given) ?
> 100 µM

And for CCOC(=O)c1cc(/C(=N\O)c2cc(OC)c(OC)c(OC)c2)n2cc(C)cc(C)c12 ?
6.74 µM

And for COc1ccc(CNc2ccn(C3OC(CO)C(O)C3O)c(=O)n2)cc1 (stereo not given) ?
> 100 µM

And for CC(=O)OC1C=C(C=O)C(O)(C=O)C2(C)CCCC(C)(C)C12 (stereo not given) ?
2.31 µM

And for O=C(O)c1cccc(Nc2c(C(=O)O)cccc2[N+](=O)[O-])c1 ?
> 100 µM

And for COc1cc2oc(-c3ccc(O)cc3)cc(=O)c2c(OC)c1OC ?
> 100 µM
